# Tested on: RAW-Dual
# TEST PROTOCOL: NF-kB SEAP reporter activity, fold change vs agonist alone; cytotoxicity flag (confluency mask): not cytotoxic; higher = enhanced NF-kB activity
# MEASUREMENT PARAMETERS: agonist: ODN 1826 (TLR9) 0.5 ug/mL
Over roughly 2,900 compounds, “NF-kB SEAP reporter activity, fold change vs agonist alone” has its median near 0.99; the highest 2% begin near 2.6. The entries come from a sample that favours the highest values as a whole.

{"COMPOUND": "O=c1cc(-c2cccc3c2Sc2ccccc2S3)oc(N2CCOCC2)c1 (library stock concentration (final ~1000-fold dilution): 10 mM)", "ASSAYED TARGET": "RAW-Dual", "NF-kB SEAP reporter activity": 0.715}
{"COMPOUND": "O=C(C=Cn1cnc(-c2cc(C(F)(F)F)cc(C(F)(F)F)c2)n1)NNc1cnccn1 (library stock concentration (final ~1000-fold dilution): 10 mM)", "ASSAYED TARGET": "RAW-Dual", "NF-kB SEAP reporter activity": 0.841}
{"COMPOUND": "CN1C2=C3N=c4ccccc4=C3CCN2C(=O)c2ccccc21.Cl (library stock concentration (final ~1000-fold dilution): 10 mM)", "ASSAYED TARGET": "RAW-Dual", "NF-kB SEAP reporter activity": 0.594}
{"COMPOUND": "CC1CN(CC(=O)Nc2ccc3c(c2)Cc2cccc(-c4cc(=O)cc(N5CCOCC5)o4)c2S3)CC(C)O1 (stereo unspecified) (library stock concentration (final ~1000-fold dilution): 10 mM)", "ASSAYED TARGET": "RAW-Dual", "NF-kB SEAP reporter activity": 0.922}
{"COMPOUND": "Cl.Cl.NC1CCC(NC2CC2c2ccccc2)CC1 (stereo unspecified) (library stock concentration (final ~1000-fold dilution): 10 mM)", "ASSAYED TARGET": "RAW-Dual", "NF-kB SEAP reporter activity": 0.222}
{"COMPOUND": "COc1ccc(CCc2nc3cc(-c4c(C)noc4C)ccc3n2CC(C)N2CCOCC2)cc1Cl (stereo unspecified) (library stock concentration (final ~1000-fold dilution): 10 mM)", "ASSAYED TARGET": "RAW-Dual", "NF-kB SEAP reporter activity": 2.49}
